System: Rattus norvegicus
ASSAY_PROCEDURE: Biodistribution in fat of immature female rat after 1 hr administration of 3 micro Ci (111 kBq) in the presence of (+E2)
Assay type: ADME, organism-based, Adipose tissue
ASSAY_CONDITIONS: in vivo
RECORDED_ENDPOINT: ID/g (%)

// known answers, use as guide
// returns ID/g for C[C@@H]1Cc2cc(O)c(F)cc2[C@H]2CC[C@@]3(C)[C@@H](CC[C@@]3(O)/C=C\I)[C@H]12 with Rattus norvegicus; value = 1.58

// returns ID/g for C[C@]12CC[C@@H]3c4ccc(O)c(F)c4CC[C@H]3[C@@H]1CC[C@@]2(O)/C=C/I with Rattus norvegicus; value = 1.14

// returns ID/g for C[C@]12CC[C@@H]3c4cc(F)c(O)cc4CC[C@H]3[C@@H]1CC[C@@]2(O)/C=C/I with Rattus norvegicus; value = 2.93

// returns ID/g for CO[C@H]1C[C@@]2(C)[C@@H](CC[C@@]2(O)/C=C\I)[C@@H]2CCc3c(ccc(O)c3F)[C@H]21 with Rattus norvegicus; value = 1.82

[1] C[C@]12CC[C@@H]3c4cc(F)c(O)cc4CC[C@H]3[C@@H]1CC[C@@]2(O)/C=C\I
[2] C[C@@H]1Cc2c(ccc(O)c2F)[C@H]2CC[C@@]3(C)[C@@H](CC[C@@]3(O)/C=C/I)[C@H]12
[3] C[C@@H]1Cc2c(ccc(O)c2F)[C@H]2CC[C@@]3(C)[C@@H](CC[C@@]3(O)/C=C\I)[C@H]12
Thanks in advance: please rank these 3 entries by ID/g, highest to lowest. Reply: labels, ordered per the request.
2, 1, 3

FYI, the data here is from ChEMBL document CHEMBL1126849.
